System: biotinyl-Phe-oxazolone
measurement notes: self-aminoacylation, catalytic enhancement (BFO) (fold over background); higher = more active; k-Seq, kA / k0A0; sequences stand for … in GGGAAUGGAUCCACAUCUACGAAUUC…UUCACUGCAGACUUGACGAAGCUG
Variants at the floor of the assay were thinned out.
Each entry belongs to exactly one class, chosen by where its self-aminoacylation falls: low group: < 1; middle group: ≥ 1 and < 10; high group: ≥ 10

Examples from the recorded data:
1. AUUACCCUGGUCAGCGACUGA [Fam2.1 aminoacylation ribozyme variant] : middle group
2. AUUACCCUGGUCAUCGCGUGC [Fam2.1 aminoacylation ribozyme variant] : high group
3. CCACUCUUCAAGCAAGCGGUC [Fam1B.1 aminoacylation ribozyme variant] : low group
4. AUUCUCCUAGGUCUUCGGGUG [Fam2.2 aminoacylation ribozyme variant] : high group
5. AAGUUUGCAAAUAGCCGCAAG [Fam3.1 aminoacylation ribozyme variant] : low group

Which band does CCACACUACAAGCAAUGGGUC [Fam1B.1 aminoacylation ribozyme variant] fall in? low group

Please classify: CUAGUUCAAACAAUCGGUAUG [Fam1A.1 aminoacylation ribozyme variant] middle group

Pick a category. Item: CUACAUCAAAAAAUCGGUCUG [Fam1A.1 aminoacylation ribozyme variant] middle group

Looking at AUUCCCCUAGGUCAUCGGGAG [Fam2.2 aminoacylation ribozyme variant] , which class would you pick? high group

Sort CUACUACAAACAAUCAGUCUG [Fam1A.1 aminoacylation ribozyme variant] into one of the categories. low group

# bin lookup: classify CCACAGUACAAGCAAUCGGUC [Fam1B.1 aminoacylation ribozyme variant] by its self-aminoacylation middle group

Band for the recorded self-aminoacylation of AGCUUUGCUAAUAGUCGCAAG [Fam3.1 aminoacylation ribozyme variant] ? middle group

Where would AAGUGUGCUAAUAGUCUCAAG [Fam3.1 aminoacylation ribozyme variant] land among the classes by reported self-aminoacylation? middle group

Please let me know in which category the item AAGUUUGCUAACAGUCGUAAG [Fam3.1 aminoacylation ribozyme variant] belongs. high group

Kindly state the category for this sequence: AAGUUUGCUAAUAAUCGCGAG [Fam3.1 aminoacylation ribozyme variant] middle group

* * *

Entries annotated with measured self-aminoacylation
Test system: biotinyl-Trp-oxazolone
measurement notes: self-aminoacylation, catalytic enhancement (BWO) (fold over background); higher = more active; k-Seq, kA / k0A0; sequences stand for … in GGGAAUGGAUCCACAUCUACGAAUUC…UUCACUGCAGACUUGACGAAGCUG
This sample holds only a part of the variants without activity.
Please give the numeric answer without any surrounding text.

1) AAGUUUGCUAAUGGGCGCAAG [Fam3.1 aminoacylation ribozyme variant] : 1.5
2) CUGCAUCAAACAAUCGGUCUG [Fam1A.1 aminoacylation ribozyme variant] : 7.51
3) AUUACCAUGGGCAUCGAGUGA [Fam2.1 aminoacylation ribozyme variant] : 7.88
4) AUUCCCCUAGGACAUCGGGUG [Fam2.2 aminoacylation ribozyme variant] : 8.25

Per the records, this sequence ( AUUCUCCUAGGUCAUCCGGUG [Fam2.2 aminoacylation ribozyme variant] ) has self-aminoacylation equal to 9.8

Value of self-aminoacylation reported for the sequence AAGCGUGCUAAUAGUCGCAAG [Fam3.1 aminoacylation ribozyme variant] is 2.33

* * *

In this section, each of the sequences is paired with its reported self-aminoacylation.
Test system: biotinyl-Leu-oxazolone
measurement notes: self-aminoacylation, catalytic enhancement (BLO) (fold over background); higher = more active; k-Seq, kA / k0A0; sequences stand for … in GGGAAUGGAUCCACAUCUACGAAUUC…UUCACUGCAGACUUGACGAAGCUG
This sample holds only a part of the variants without activity.
Give your answer as a number; write no unit.

1. GCACACUUCAAGCAAUCGGCC [Fam1B.1 aminoacylation ribozyme variant] : 3.49
2. CCACACUUGAAGCUAUCGGUC [Fam1B.1 aminoacylation ribozyme variant] : 0.775
3. AUGCUCCUAGGUCAUCGGGUG [Fam2.2 aminoacylation ribozyme variant] : 8.92
4. CGACUUCAAACAAUCGGUUUG [Fam1A.1 aminoacylation ribozyme variant] : 2.33
5. AUUAACCUAGGUGAUCGGGUG [Fam2.2 aminoacylation ribozyme variant] : 3.63
6. CAGUGUGCUAAUAGUCGCAAG [Fam3.1 aminoacylation ribozyme variant] : 1.46
7. AAGUUUGCUAAUUGUCGCAAG [Fam3.1 aminoacylation ribozyme variant] : 0.764
8. AGUCAUCUAGGUCAUCGGGUG [Fam2.2 aminoacylation ribozyme variant] : 7.92

The reported self-aminoacylation of the sequence CCUCAGUUCAAGCAAUCGGUC [Fam1B.1 aminoacylation ribozyme variant] was 1.36

// recorded self-aminoacylation for CCUCACUUCAAGCAAUUGGUC [Fam1B.1 aminoacylation ribozyme variant] : 0.506

Noted for CCACACCUCAAGCAAGCGGUC [Fam1B.1 aminoacylation ribozyme variant] : its self-aminoacylation reads 0.921

Just so you know, measured self-aminoacylation for CUACUUCAAACAAUGUGUCUG [Fam1A.1 aminoacylation ribozyme variant] came out at 0.716

* * *

Test system: biotinyl-Val-oxazolone
measurement notes: self-aminoacylation, catalytic enhancement (BVO) (fold over background); higher = more active; k-Seq, kA / k0A0; sequences stand for … in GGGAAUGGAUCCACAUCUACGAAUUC…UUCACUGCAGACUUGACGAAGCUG
This sample holds only a part of the variants without activity.
Below: a set of entries, each annotated with reported self-aminoacylation.
Answer with a number only.

Consider the following illustrative entries.
1. AAGUUUGCACAUAGUCGCAAG [Fam3.1 aminoacylation ribozyme variant] : 0.73
2. CAACUUCCAACAAUCGGUCUG [Fam1A.1 aminoacylation ribozyme variant] : 0.929

Notebook: AUUCAUCUAGGUCAUCGGAUG [Fam2.2 aminoacylation ribozyme variant] , self-aminoacylation read as 1.04

* * *

Parameter self-aminoacylation: see the listing below.
Test system: biotinyl-Trp-oxazolone
measurement notes: self-aminoacylation, catalytic enhancement (BWO) (fold over background); higher = more active; k-Seq, kA / k0A0; sequences stand for … in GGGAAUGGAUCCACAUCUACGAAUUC…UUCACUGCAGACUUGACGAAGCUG
Variants at the floor of the assay were thinned out.
Lab note: record just the number, no unit beside it.

As a guide, the following entries are already answered.
1. AUUCACCAAGGUCAUGGGGUG [Fam2.2 aminoacylation ribozyme variant] : 8.64
2. AUUCACCUAGGUCAGGGGGUG [Fam2.2 aminoacylation ribozyme variant] : 2.55
3. AUUUCCCUGGUCAUCUAGUGA [Fam2.1 aminoacylation ribozyme variant] : 11.7
4. AUUCACCUAGGACAUCGGGUA [Fam2.2 aminoacylation ribozyme variant] : 2.09
5. CCAAACUUCAAGCCAUCGGUC [Fam1B.1 aminoacylation ribozyme variant] : 1.01
6. CCACACAGCAAGCAAUCGGUC [Fam1B.1 aminoacylation ribozyme variant] : 0.608

Entry AUUCAGCUAGGUCAUCGGGCG [Fam2.2 aminoacylation ribozyme variant] , self-aminoacylation reported as 3.83

Lab note: measured self-aminoacylation of CAACUUCAAACAGUCGGUCUG [Fam1A.1 aminoacylation ribozyme variant] was 0.928

* * *

Some sequences, each annotated with its measured self-aminoacylation.
Test system: biotinyl-Leu-oxazolone
measurement notes: self-aminoacylation, catalytic enhancement (BLO) (fold over background); higher = more active; k-Seq, kA / k0A0; sequences stand for … in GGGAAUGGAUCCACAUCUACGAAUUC…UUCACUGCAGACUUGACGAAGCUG
Variants at the floor of the assay were thinned out.
Respond with the number and no other words.

1) CUUCUUCACACAAUCGGUCUG [Fam1A.1 aminoacylation ribozyme variant] : 0.775

The recorded self-aminoacylation for AUUCACCUAGGGCAUCGGUUG [Fam2.2 aminoacylation ribozyme variant] is 1.12

Sure, the documented self-aminoacylation for CCACACUUCAAUCAACCGGUC [Fam1B.1 aminoacylation ribozyme variant] is 1.06

* * *

System: biotinyl-Val-oxazolone
measurement notes: self-aminoacylation, catalytic enhancement (BVO) (fold over background); higher = more active; k-Seq, kA / k0A0; sequences stand for … in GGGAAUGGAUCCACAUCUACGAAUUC…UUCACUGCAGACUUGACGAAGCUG
Variants at the floor of the assay were thinned out.
Answer No if self-aminoacylation is under 1, and Yes if it is 1 or more.

1. CCACGCGUCAAGCAAUCGGUC [Fam1B.1 aminoacylation ribozyme variant] : Yes

Shifting focus to the sequence that follows.
Decide: is the reported value of self-aminoacylation for AUUCCCCUAGGUCAGCGGGUG [Fam2.2 aminoacylation ribozyme variant] equal to or greater than 1? Yes

* * *

Tested on: biotinyl-Ile-oxazolone
measurement notes: self-aminoacylation, catalytic enhancement (BIO) (fold over background); higher = more active; k-Seq, kA / k0A0; sequences stand for … in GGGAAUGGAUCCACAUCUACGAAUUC…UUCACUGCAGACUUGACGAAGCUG
This sample holds only a part of the variants without activity.
measured endpoint: self-aminoacylation
Number only, no unit.

1) AUUACCCUGGUCAACUAGUGA [Fam2.1 aminoacylation ribozyme variant] : 3.93
2) AUUACCCUGGUCGGCGAGUGA [Fam2.1 aminoacylation ribozyme variant] : 5.39
3) CGACUUCAAACAAUUGGUCUG [Fam1A.1 aminoacylation ribozyme variant] : 1.06
4) AUCACCUUGGUCAUCGAGUGA [Fam2.1 aminoacylation ribozyme variant] : 3.39
5) AUAACCCUGGUCUUCGAGUGA [Fam2.1 aminoacylation ribozyme variant] : 2.9

Here AAGUUUGCUAAUAGACGCACG [Fam3.1 aminoacylation ribozyme variant] was tested on biotinyl-Ile-oxazolone, and its self-aminoacylation came to 0.543

Noted self-aminoacylation for AAGCUUGCUAAGAGUCGCAAG [Fam3.1 aminoacylation ribozyme variant] , tested on biotinyl-Ile-oxazolone: 2.51

Readout self-aminoacylation for CCACACUCCAAGCAAUCGGAC [Fam1B.1 aminoacylation ribozyme variant] , test system biotinyl-Ile-oxazolone, was 1.09

// returns self-aminoacylation for CUACUUGAAACAAUCGUUCUG [Fam1A.1 aminoacylation ribozyme variant] with biotinyl-Ile-oxazolone; value = 0.635

Lab note: sequence AUUCACCUAGGUCAUCUUGUG [Fam2.2 aminoacylation ribozyme variant] tested on biotinyl-Ile-oxazolone; recorded self-aminoacylation was 0.835

Query AUUACCCUGCUCGUCGAGUGA [Fam2.1 aminoacylation ribozyme variant] on biotinyl-Ile-oxazolone; self-aminoacylation returned: 0.725

The measured self-aminoacylation that AAGAUUGCUAAUAGUCCCAAG [Fam3.1 aminoacylation ribozyme variant] showed for biotinyl-Ile-oxazolone is 1.28

Entry AUUACCAUGGUCACCGAGUGA [Fam2.1 aminoacylation ribozyme variant] ; assay system biotinyl-Ile-oxazolone; self-aminoacylation recorded at 3.34
